From: the CombiSolv-Exp solvation set (Vermeire and Green 2021)

# Assay Remarks: solvent given as SMILES
# Condition Details: in OCCCCO
Reported Metric: solvation free energy, 298 K (kcal/mol)

mol=CCCCCCC reported_metric="solvation free energy, 298 K" display_unit=kcal/mol reported_value=-2.45
mol=CCCCCCCC reported_metric="solvation free energy, 298 K" display_unit=kcal/mol reported_value=-2.87
mol=CCCCCC reported_metric="solvation free energy, 298 K" display_unit=kcal/mol reported_value=-1.88
mol=CCc1ccccc1 reported_metric="solvation free energy, 298 K" display_unit=kcal/mol reported_value=-4.2

###

# Assay Remarks: solvent given as SMILES
# Condition Details: in c1ccc2ncccc2c1
Reported Metric: solvation free energy, 298 K (kcal/mol)

mol=CCCCl reported_value=-3.35
mol=CCCCCC reported_value=-3.1
mol=CCOC(C)=O reported_value=-4.07
mol=CCI reported_value=-3.93
mol=C1=CCC=C1 reported_value=-2.88
mol=CC#N reported_value=-3.98
mol=CCCCCCC reported_value=-3.86
mol=CCCCC reported_value=-2.54
mol=C[N+](=O)[O-] reported_value=-4.72
mol=CC(C)=O reported_value=-3.62
mol=CCCCCCCC reported_value=-4.22
mol=CCO reported_value=-4.53
mol=CI reported_value=-3.4

###

The following compounds are listed with their measured solvation free energy, 298 K values.
# Assay Remarks: solvent given as SMILES
# Condition Details: in CCOCCOCCOCC
Reported Metric: solvation free energy, 298 K (kcal/mol)

mol=CCCCCC reported_metric="solvation free energy, 298 K" display_unit=kcal/mol reported_value=-3.42
mol=CCO reported_metric="solvation free energy, 298 K" display_unit=kcal/mol reported_value=-4.21
mol=CCCCCCCC reported_metric="solvation free energy, 298 K" display_unit=kcal/mol reported_value=-4.65
mol=CC(C)C(C)C(C)C reported_metric="solvation free energy, 298 K" display_unit=kcal/mol reported_value=-4.33
mol=CCCCCCCCC reported_metric="solvation free energy, 298 K" display_unit=kcal/mol reported_value=-5.25
mol=C[N+](=O)[O-] reported_metric="solvation free energy, 298 K" display_unit=kcal/mol reported_value=-4.91
mol=CCCCC reported_metric="solvation free energy, 298 K" display_unit=kcal/mol reported_value=-2.79
mol=CC(C)CCC(C)C reported_metric="solvation free energy, 298 K" display_unit=kcal/mol reported_value=-4.23
mol=CCCCCCC reported_metric="solvation free energy, 298 K" display_unit=kcal/mol reported_value=-4.04

###

# Assay Remarks: solvent given as SMILES
# Condition Details: in CCCCC(CC)COC(=O)c1ccccc1C(=O)OCC(CC)CCCC
Measured solvation free energy, 298 K, listed per entry.
Reported Metric: solvation free energy, 298 K (kcal/mol)

mol=CCCCCC reported_metric="solvation free energy, 298 K" reported_value=-3.13
mol=CCCCCCC reported_metric="solvation free energy, 298 K" reported_value=-3.79
mol=CCCCCCCC reported_metric="solvation free energy, 298 K" reported_value=-4.43
mol=CCCCC reported_metric="solvation free energy, 298 K" reported_value=-2.47

###

In this section, each of the molecules is paired with its reported solvation free energy, 298 K.
# Assay Remarks: solvent given as SMILES
# Condition Details: in ClC(Cl)(Cl)Cl
Reported Metric: solvation free energy, 298 K

mol=CC#N reported_value="-3.03 kcal/mol"
mol=C[N+](=O)[O-] reported_value="-3.49 kcal/mol"
mol=CSC reported_value="-3.6 kcal/mol"
mol=CCCCl reported_value="-3.7 kcal/mol"
mol=FC(F)(F)F reported_value="0.82 kcal/mol"
mol=FC(F)(Cl)Cl reported_value="-1.92 kcal/mol"
mol=CC(C)C(C)C(C)C reported_value="-5.09 kcal/mol"
mol=c1ccc2cc3ccccc3cc2c1 reported_value="-11.2 kcal/mol"
mol=C#C reported_value="-0.65 kcal/mol"
mol=O=[N+]([O-])c1ccc(Cl)c(Cl)c1 reported_value="-9.07 kcal/mol"
mol=C1CCOC1 reported_value="-4.28 kcal/mol"
mol=CCCCCCCCC reported_value="-6.2 kcal/mol"
mol=CC(C)=O reported_value="-3.25 kcal/mol"
mol=C=C(C)C reported_value="-2.44 kcal/mol"
mol=Brc1ccc(Br)cc1 reported_value="-7.9 kcal/mol"
mol=CN(C)C=O reported_value="-4.73 kcal/mol"
mol=CCCCC reported_value="-3.32 kcal/mol"
mol=FC(F)(F)Cl reported_value="-0.6 kcal/mol"
mol=CCI reported_value="-4.17 kcal/mol"
mol=c1ccc2ccccc2c1 reported_value="-7.63 kcal/mol"
mol=CCOCCOC reported_value="-5.85 kcal/mol"
mol=ClCCCCl reported_value="-5.2 kcal/mol"
mol=CCCCCC reported_value="-4.08 kcal/mol"
mol=CCCCCCCC reported_value="-5.45 kcal/mol"
mol=CC(Cl)(Cl)Cl reported_value="-4.24 kcal/mol"
mol=CCOCC reported_value="-3.52 kcal/mol"
mol=CCCCCCCCCCCCCCCC reported_value="-11.4 kcal/mol"
mol=CCO reported_value="-2.97 kcal/mol"
mol=c1ccc(-c2ccccc2)cc1 reported_value="-9.22 kcal/mol"
mol=Oc1ccc2ccccc2c1 reported_value="-9.45 kcal/mol"
mol=C=CC reported_value="-1.84 kcal/mol"
mol=CCCCCCC reported_value="-4.81 kcal/mol"
mol=CCOC(=O)OCC reported_value="-5.78 kcal/mol"
mol=Cl reported_value="-0.86 kcal/mol"
mol=CCCCC(C)=O reported_value="-5.36 kcal/mol"
mol=CI reported_value="-3.49 kcal/mol"
mol=[N]=O reported_value="0.62 kcal/mol"
mol=c1cc2ccc3cccc4ccc(c1)c2c34 reported_value="-12.7 kcal/mol"
mol=CC(C)CCC(C)C reported_value="-5.01 kcal/mol"
mol=ClCC(Cl)Cl reported_value="-5.06 kcal/mol"
mol=CCOCCO reported_value="-4.87 kcal/mol"
mol=CCCCOC reported_value="-4.39 kcal/mol"

###

# Assay Remarks: solvent given as SMILES
# Condition Details: in CCOCC
Property: solvation free energy, 298 K; scope: individual compounds
Reported Metric: solvation free energy, 298 K (kcal/mol)

mol=c1cc2ccc3cccc4ccc(c1)c2c34 reported_metric="solvation free energy, 298 K" reported_value=-12.4
mol=O=C(O)c1ccc(Cl)c([N+](=O)[O-])c1 reported_metric="solvation free energy, 298 K" reported_value=-13.1
mol=CCCCCCC reported_metric="solvation free energy, 298 K" reported_value=-4.66
mol=CCCCCC reported_metric="solvation free energy, 298 K" reported_value=-3.99
mol=c1ccc2cc3ccccc3cc2c1 reported_metric="solvation free energy, 298 K" reported_value=-10.9
mol=CCCCCCCCC reported_metric="solvation free energy, 298 K" reported_value=-5.97
mol=Brc1ccc(Br)cc1 reported_metric="solvation free energy, 298 K" reported_value=-8.21
mol=C[N+](=O)[O-] reported_metric="solvation free energy, 298 K" reported_value=-4.21
mol=COc1ccc(C(=O)O)cc1 reported_metric="solvation free energy, 298 K" reported_value=-11.5
mol=c1ccc2c(c1)Sc1ccccc1S2 reported_metric="solvation free energy, 298 K" reported_value=-12.1
mol=CC#N reported_metric="solvation free energy, 298 K" reported_value=-3.63
mol=CCCCC reported_metric="solvation free energy, 298 K" reported_value=-3.3
mol=O=[N+]([O-])c1cccc2ccccc12 reported_metric="solvation free energy, 298 K" reported_value=-11
mol=CCI reported_metric="solvation free energy, 298 K" reported_value=-3.78
mol=c1ccc(-c2ccccc2)cc1 reported_metric="solvation free energy, 298 K" reported_value=-8.59
mol=CCCCCCCC reported_metric="solvation free energy, 298 K" reported_value=-5.41
mol=CC(C)CCC(C)C reported_metric="solvation free energy, 298 K" reported_value=-4.91
mol=CCO reported_metric="solvation free energy, 298 K" reported_value=-4.42
mol=O=S(=O)(c1ccccc1)c1ccccc1 reported_metric="solvation free energy, 298 K" reported_value=-13.7
mol=Nc1ccc(C(=O)O)cc1 reported_metric="solvation free energy, 298 K" reported_value=-13.6
mol=[N]=O reported_metric="solvation free energy, 298 K" reported_value=0.34
mol=CC(C)C(C)C(C)C reported_metric="solvation free energy, 298 K" reported_value=-4.96
mol=Cc1cc(C)c(C)cc1C reported_metric="solvation free energy, 298 K" reported_value=-7.34
mol=CC(C)=O reported_metric="solvation free energy, 298 K" reported_value=-3.51
mol=O=C(O)c1cc([N+](=O)[O-])ccc1Cl reported_metric="solvation free energy, 298 K" reported_value=-12.8
mol=O=C(O)c1cccc([N+](=O)[O-])c1 reported_metric="solvation free energy, 298 K" reported_value=-12.1
mol=CC(Cl)(Cl)Cl reported_metric="solvation free energy, 298 K" reported_value=-4.13

###

# Assay Remarks: solvent given as SMILES
# Condition Details: in CC(C)CCO
If the reported solvation free energy, 298 K equals or exceeds -10 kcal/mol, assign true. If not, assign false.

mol=O=[N+]([O-])c1cccc2ccccc12 assigned_category=true
mol=CCCCCCC assigned_category=true
mol=O=C(O)c1ccc(Cl)c([N+](=O)[O-])c1 assigned_category=false
mol=CCc1ccc2c(c1)C(=O)c1ccccc1C2=O assigned_category=false
mol=C[N+](=O)[O-] assigned_category=true
mol=C=C(C)C assigned_category=true
mol=COc1ccc(C(=O)O)cc1 assigned_category=false
mol=Nc1ccc(C(=O)O)cc1 assigned_category=false
